Tested on: primary smooth muscle cells
ASSAY EXPLANATION: Proliferation of primary smooth muscle cells
Assay type: cell-based
STUDY CONDITIONS: read-out: IC50, proliferation
PROPERTY LABEL: pIC50
Interpret pIC50 as the negative base-10 log of the concentration measured in mol/L.

Note to self: pIC50 recorded for CC(=O)Nc1cccc(-n2c(=O)n(C3CC3)c(=O)c3c(Nc4ccc(I)cc4F)n(C)c(=O)c(C)c32)c1 was 6.07

----------
Tested on: retinal pigment epithelial cells
ASSAY EXPLANATION: Proliferation of retinal pigment epithelial cells
Format: cell-based
STUDY CONDITIONS: Epithelial cell, read-out: IC50, proliferation
PROPERTY LABEL: IC50 (nM)
# output: bare number, implied unit nM

IC50 measured on CC(=O)Nc1cccc(-n2c(=O)n(C3CC3)c(=O)c3c(Nc4ccc(I)cc4F)n(C)c(=O)c(C)c32)c1 = 12
